Assayed target: récepteur vasculaire de l'angiotensine II (Oryctolagus cuniculus, UniProt P34976)
Construct: réponse contractile induite par l'angiotensine II dans des anneaux isolés d'aorte de lapin
Sequence (P34976 whole entry): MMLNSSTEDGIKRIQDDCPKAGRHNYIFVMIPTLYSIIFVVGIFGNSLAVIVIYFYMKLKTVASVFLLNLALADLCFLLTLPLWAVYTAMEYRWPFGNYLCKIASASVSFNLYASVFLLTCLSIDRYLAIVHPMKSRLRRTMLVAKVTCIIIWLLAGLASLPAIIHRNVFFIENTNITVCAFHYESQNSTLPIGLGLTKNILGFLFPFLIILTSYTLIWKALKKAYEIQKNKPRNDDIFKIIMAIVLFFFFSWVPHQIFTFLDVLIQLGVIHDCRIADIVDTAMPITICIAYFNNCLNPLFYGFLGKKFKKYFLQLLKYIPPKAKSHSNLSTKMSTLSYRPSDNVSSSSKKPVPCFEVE
Procedure summary: Antagonism of the angiotensin II-induced contractile response in isolated rabbit aortic rings
Experimental conditions: contraction by angiotensine II 3.10⁻⁹ M, test product preincubated 15 minutes, 37°C
Assay metric: IC50 (nM)

INSERT INTO results (compound, result_value) VALUES
  ('CCCCc1nc(Cl)c(CNc2cc(Cl)ccc2C(=O)O)n1Cc1ccc(C(=O)O)cc1', 5.3),
  ('CCCCc1nc(Cl)c(CN(C(C)=O)c2ccccc2C(=O)O)n1Cc1ccc(C(=O)O)cc1', 69.1),
  ('CCCCc1nc(Cl)c(Cn2c(C(=O)O)cc3ccccc32)n1Cc1ccc(C(=O)O)cc1', 8.4),
  ('CCCCc1ncc(CNc2ccccc2C(=O)OCC(O)CO)n1Cc1ccc(C(=O)O)cc1 (stereo not shown)', 80);
